Test system: SW-620 colon
EXPERIMENTAL PROTOCOL: NCI tumour cell line growth inhibition, 48 h
Entries and their measured TGI follow.

{"MOLECULE": "CCOC(=O)C(=O)Nc1ccccc1OCC", "TARGET OR SYSTEM": "SW-620 colon", "TGI": "> 100 µM"}
{"MOLECULE": "CN(C(=O)C12C3C4C1C1C2C3C41C(O)C(C)(C)C)C(C)(C)C (stereo not drawn)", "TARGET OR SYSTEM": "SW-620 colon", "TGI": "> 100 µM"}
{"MOLECULE": "OCC(O)COc1c(Cl)cc(Cl)cc1Cl (stereo not drawn)", "TARGET OR SYSTEM": "SW-620 colon", "TGI": "> 51.9 µM"}

Recorded values, source PubChem BioAssay (NCI).
